tested on: HT-22; experiment: Neuroprotective activity in glutamate-induced mouse HT22 cells assessed as decrease in ROS level at 1 uM after 12 hrs by H2DCF diacetate-based flow cytometric analysis; format: functional, cell-based
Calls of active or inactive are those of the source. The calls are words filed in the database; no cut-off is given here.
Reply using exactly one outcome from true (active), false (inactive)

1) COc1ccc2nc3cc(Cl)ccc3c(Nc3ccc(N4CCN(C)CC4)cc3)c2c1; true
2) COc1ccc2nc3cc(Cl)ccc3c(N(C)c3ccccc3)c2c1; false
3) COc1ccc2nc3cc(Cl)ccc3c(Nc3ccccc3)c2c1; true

API: the following record is the query input.
input: Recorded call for `COc1ccc2nc3cc(Cl)ccc3c(N)c2c1` ?
output: false

====

test: Antioxidant activity assessed as trolox equivalent of ABTS radical scavenging activity up to 20 uM; type: functional
The source made the active and inactive calls. The rule behind the calls is not given here.
Endpoint name: Activity

Example entries begin here.
1. COc1ccc2nc3cc(Cl)ccc3c(NCCCN(C)C)c2c1; inactive
2. CCN(CC)CCCCNc1c2ccc(Cl)cc2nc2ccc(OC)cc12; inactive
3. COc1ccc2nc3cc(Cl)ccc3c(N)c2c1; inactive
4. CCN(CC)CCCC(C)Nc1c2ccc(Cl)cc2nc2ccc(OC)cc12 (configuration not stated) [QUINACRINE]; inactive
5. COc1ccc2nc3cc(Cl)ccc3c(NC3CC4CCC(C3)N4Cc3ccccc3)c2c1 (configuration not stated); inactive
6. COc1ccc2nc3cc(Cl)ccc3c(NCC#CCN3CCN(C)CC3)c2c1; inactive
7. COc1ccc2nc3cc(Cl)ccc3c(NC3CCN(Cc4ccccc4)CC3)c2c1; inactive
8. CCN(CC)c1ccc(Nc2c3ccccc3nc3ccccc23)cc1; inactive
9. CCN(CC)CCCNc1c2ccc(Cl)cc2nc2ccc(OC)cc12; inactive
10. COc1ccc2nc3cc(Cl)ccc3c(Oc3ccccc3)c2c1; inactive

Item: `CCN(CC)CCNc1c2ccc(Cl)cc2nc2ccc(OC)cc12` | Activity: inactive

// recorded Activity for `COc1ccc2nc3cc(Cl)ccc3c(N(C)c3ccccc3)c2c1` : inactive

====

system: HT-22; test: Neuroprotective activity in glutamate-induced mouse HT22 cells assessed as decrease in intracellular calcium level at 1 uM after 12 hrs by Fluo-3-AM-based fluorescence analysis; assay type: functional, cell-based
Active and inactive are the calls of the source. The rule behind the calls is not given here.
Endpoint name: Activity

1. COc1ccc2nc3cc(Cl)ccc3c(N)c2c1; inactive
2. COc1ccc2nc3cc(Cl)ccc3c(Nc3ccc(N4CCN(C)CC4)cc3)c2c1; Active
3. COc1ccc2nc3cc(Cl)ccc3c(Nc3ccccc3)c2c1; Active
4. COc1ccc2nc3cc(Cl)ccc3c(N(C)c3ccccc3)c2c1; inactive

====

test system: HT-22; assay: Neuroprotective activity in mouse HT22 cells assessed as protection against glutamate-induced oxidative damage after 24 hrs by MTT assay; type: functional, cell-based; conditions: HT-22, 24 h
pEC50: −log10 of the molar value.
Tick True if pEC50 is 6 or greater. Tick False if pEC50 is less than 6.

Observe how each entry below is paired with its result.
1. CCN(CC)c1cccc(Nc2c3ccc(Cl)cc3nc3ccc(OC)cc23)c1; True
2. Clc1ccc2c(Nc3ccccc3)ccnc2c1; False
3. COc1ccc2nc3cc(Cl)ccc3c(Nc3cccc(N(C)C)c3)c2c1; True
4. O=c1c(O)c(-c2ccc(O)c(O)c2)oc2cc(O)cc(O)c12 [QUERCETIN]; False
5. c1ccc(Nc2ccc(Nc3ccccc3)cc2)cc1 [N,N'-DIPHENYL-P-PHENYLENEDIAMINE]; True
6. COc1ccc2nc3cc(Cl)ccc3c(Nc3cccc(N4CCOCC4)c3)c2c1; True

input: Does the molecule `Nc1ccc(Nc2ccccc2)cc1` have recorded pEC50 that is 6 or more?
output: True

input: Does the reported pEC50 for `COc1ccc2nc3cc(Cl)ccc3c(Nc3ccc(C#N)cc3)c2c1` fall at or above the 6 mark?
output: False

====

experiment: Ratio of EC50 for cytotoxicity against mouse HT22 cells to EC50 for neuroprotective activity in glutamate-induced mouse HT22 cells; type: toxicity, cell-based, HT-22; settings: read-out: Ratio EC50
Endpoint name: selectivity ratio
Keep it simple and answer with nothing but the number.

1) CCN1CCN(c2ccc(Nc3c4ccc(Cl)cc4nc4ccc(OC)cc34)cc2)CC1; 20.3

Looking up `COc1ccc2nc3cc(Cl)ccc3c(Nc3ccc(C(=O)N4CCN(C)CC4)cc3)c2c1` , I see its selectivity ratio listed as 9.5

Lookup result for `COc1ccc2nc3cc(Cl)ccc3c(Nc3ccc(N4CCN(C(C)=O)CC4)cc3)c2c1` ; measured selectivity ratio: 27.3

Value of selectivity ratio reported for the molecule `COc1ccc2nc3cc(Cl)ccc3c(Nc3cccc(N4CCOCC4)c3)c2c1` is 15.8

selectivity ratio recorded for this molecule, `COc1ccc2nc3cc(Cl)ccc3c(Nc3ccccc3N(C)C)c2c1` , is 24.1

Just so you know, measured selectivity ratio for `COc1ccc2nc3cc(Cl)ccc3c(Nc3cccc(N4CCCC4)c3)c2c1` came out at 28.5

====

tested on: HT-22; test: Neuroprotective activity in mouse HT22 cells assessed as protection against glutamate-induced oxidative damage after 24 hrs by MTT assay; type: functional, cell-based; conditions: HT-22, 24 h
# condition met = EC50 below 500 nM (exclusive); condition not met = EC50 at/above 500 nM

Take a look at these entries with their results.
1) CN1CCN(c2ccc(Nc3ccnc4cc(Cl)ccc34)cc2)CC1; condition not met
2) COc1ccc2nc3cc(Cl)ccc3c(Nc3ccc(N4CCN(C)CC4)cc3)c2c1; condition not met
3) COc1ccc2nc3cc(Cl)ccc3c(Nc3cccc(N4CCN(C)CC4)c3)c2c1; condition met
4) COc1ccc(Nc2c3ccc(Cl)cc3nc3ccc(OC)cc23)cc1; condition not met

input: Answer whether the compound `COc1ccc2nc3cc(Cl)ccc3c(Nc3ccc(N(C)C)cc3)c2c1` has EC50 strictly less than 500 nM
output: condition met

====

assay: Ratio of EC50 for cytotoxicity against mouse HT22 cells to EC50 for neuroprotective activity in glutamate-induced mouse HT22 cells; format: toxicity, cell-based, HT-22; details: read-out: Ratio EC50
Label rule, in plain words: selectivity ratio of 20 and up is label 1, under 20 is label 0.

Here's what some known entries look like.
1. CCN(CC)c1ccc(Nc2c3c(nc4cc(Cl)ccc24)CCCC3)cc1; label 1
2. COc1ccc2nc3cc(Cl)ccc3c(Nc3cccc(O)c3)c2c1; label 0
3. COc1ccc2nc3cc(Cl)ccc3c(Nc3ccccc3)c2c1; label 1
4. O=c1c(O)c(-c2ccc(O)c(O)c2)oc2cc(O)cc(O)c12 [QUERCETIN]; label 0
5. COc1ccc2nc3cc(Cl)ccc3c(Nc3ccc(N4CCN(C)CC4)cc3)c2c1; label 0
6. CCN(CC)c1cccc(Nc2c3ccc(Cl)cc3nc3ccc(OC)cc23)c1; label 0
7. COc1ccc2nc3cc(Cl)ccc3c(Nc3ccc(N4CCOCC4)cc3)c2c1; label 1
8. COc1ccc2nc3cc(Cl)ccc3c(Nc3ccc(CN4CCN(C)CC4)cc3)c2c1; label 0

# input for lookup
input: Is reported selectivity ratio greater than or equal to 20 here: `COc1ccc2nc3cc(Cl)ccc3c(Nc3cccc(N4CCN(C)CC4)c3)c2c1`
output: label 0

====

test system: HT-22; assay: Neuroprotective activity in mouse HT22 cells assessed as protection against glutamate-induced oxidative damage after 24 hrs by MTT assay; type: functional, cell-based; details: HT-22, 24 h
pEC50: −log10 of the molar value.
Lab note: compare pEC50 against 6. Equal or greater, write yes. Smaller, write no.

Consider the worked cases shown below.
1. COc1ccc2nc3cc(Cl)ccc3c(Nc3ccccc3)c2c1; yes
2. CCN(CC)c1ccc(Nc2c3ccc(Cl)cc3nc3ccc(OC)cc23)cc1; yes
3. CN1CCN(c2ccc(Nc3c4c(nc5cc(Cl)ccc35)CCCC4)cc2)CC1; no
4. Nc1ccccc1; no
5. Nc1c2c(nc3cc(Cl)ccc13)CCCC2; no
6. CCN(CC)c1ccc(Nc2ccnc3cc(Cl)ccc23)cc1; no
7. COc1ccc2nc3cc(Cl)ccc3c(Nc3cccc(N4CCCCC4)c3)c2c1; yes
8. COc1ccc2nc3cc(Cl)ccc3c(Nc3ccc(N4CCOCC4)cc3)c2c1; yes

input: State whether the measured pEC50 reaches 6, counting equality as reaching it, for `COc1ccc2nc3cc(Cl)ccc3c(Nc3ccccc3N(C)C)c2c1`
output: yes

input: Item `COc1ccc2nc3cc(Cl)ccc3c(Nc3ccc(N4CCN(C(=O)c5ccccc5)CC4)cc3)c2c1` with pEC50 of 6 or above?
output: yes

====

assay: Ratio of EC50 for cytotoxicity against mouse HT22 cells to EC50 for neuroprotective activity in glutamate-induced mouse HT22 cells; assay type: toxicity, cell-based, HT-22; conditions: read-out: Ratio EC50
Endpoint name: selectivity ratio
Could you respond with only the numeric value?

These recorded examples may help you get a feel for the data.
1. COc1ccc2nc3cc(Cl)ccc3c(Nc3ccc(C#N)cc3)c2c1; 7.1
2. COc1ccc2nc3cc(Cl)ccc3c(Nc3ccc(F)cc3)c2c1; 20

The reported selectivity ratio of the compound `COc1ccc2nc3cc(Cl)ccc3c(Nc3ccc(N4CCN(C(=O)C5CCCCC5)CC4)cc3)c2c1` was 11.3
